target: human FGFR-3 (Homo sapiens (Human), UniProt P22607); test: FGFR-3 kinase assay (TR-FRET); format: biochemical; conditions: 10 μM ATP; 15 min pre-incubation with enzyme; compounds of the invention; dihydrochloride
Sequence (P22607 397-806): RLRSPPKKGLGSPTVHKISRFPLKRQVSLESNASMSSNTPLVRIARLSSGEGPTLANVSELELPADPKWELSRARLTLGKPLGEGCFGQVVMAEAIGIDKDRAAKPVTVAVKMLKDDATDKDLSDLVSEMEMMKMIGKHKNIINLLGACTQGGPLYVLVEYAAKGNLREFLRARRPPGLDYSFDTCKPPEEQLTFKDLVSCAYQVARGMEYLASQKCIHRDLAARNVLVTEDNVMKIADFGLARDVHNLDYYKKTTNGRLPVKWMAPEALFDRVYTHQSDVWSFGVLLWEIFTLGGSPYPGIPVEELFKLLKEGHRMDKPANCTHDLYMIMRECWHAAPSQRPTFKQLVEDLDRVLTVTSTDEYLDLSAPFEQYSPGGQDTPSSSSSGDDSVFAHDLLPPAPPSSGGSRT
Counter-ions that a name gives are not always drawn.
measured quantity: pIC50
Numbers only, as −log10 of the molar value.

Here are 2 compounds together with their reported answers.
CCOCc1c(-c2cc3cc(C)cc(OC)c3s2)c2c(N)ncnn2c1CN1CCNC(=O)C1 [Example 6, dihydrochloride]	7.55
CCOCc1c(-c2cc3cc(C)cc(OC)c3s2)c2c(N)ncnn2c1CN1CCN(C(C)=O)CC1 [Example 11, dihydrochloride]	7.89

### Prompt Annotate the compound COCc1c(-c2cc3cc(C)cc(OC)c3s2)c2c(N)ncnn2c1CN[C@@H]1CCNC1=O [Example 3, dihydrochloride] with its measured pIC50.
### Response 7.33

###

target: human FGFR-1 (Homo sapiens, UniProt P11362); assay: FGFR-1 high ATP kinase assay (TR-FRET); format: biochemical; settings: 2 mM ATP; 15 min pre-incubation with enzyme; compounds of the invention
Sequence (P11362 22-822 limits assumed): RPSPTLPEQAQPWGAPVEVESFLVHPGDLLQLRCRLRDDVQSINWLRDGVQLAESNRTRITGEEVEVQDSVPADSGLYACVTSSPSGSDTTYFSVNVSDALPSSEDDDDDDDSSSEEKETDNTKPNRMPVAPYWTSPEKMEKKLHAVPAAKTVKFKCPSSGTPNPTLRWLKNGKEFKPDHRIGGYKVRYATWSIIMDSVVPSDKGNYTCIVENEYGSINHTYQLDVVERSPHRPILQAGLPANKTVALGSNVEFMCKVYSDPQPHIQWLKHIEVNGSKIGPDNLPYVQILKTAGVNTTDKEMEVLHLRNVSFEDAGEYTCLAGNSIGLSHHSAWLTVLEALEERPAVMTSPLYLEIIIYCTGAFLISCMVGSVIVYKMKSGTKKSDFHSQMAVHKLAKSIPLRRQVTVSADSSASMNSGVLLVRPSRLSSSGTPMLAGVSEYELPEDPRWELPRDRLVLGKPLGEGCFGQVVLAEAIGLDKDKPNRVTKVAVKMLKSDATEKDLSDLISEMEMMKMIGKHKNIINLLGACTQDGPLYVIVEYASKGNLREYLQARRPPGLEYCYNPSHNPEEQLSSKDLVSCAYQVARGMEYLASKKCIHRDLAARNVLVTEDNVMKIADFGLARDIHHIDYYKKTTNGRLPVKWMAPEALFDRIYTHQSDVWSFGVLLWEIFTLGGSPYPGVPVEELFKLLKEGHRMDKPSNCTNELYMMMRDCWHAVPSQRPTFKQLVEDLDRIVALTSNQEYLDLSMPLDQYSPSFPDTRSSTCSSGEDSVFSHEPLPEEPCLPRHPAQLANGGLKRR
Structures can show the parent of a compound that is named as a salt.
Provide the reported log10 of IC50 of each item.
Remember, log10 of IC50, in nM.

Here are 5 molecules together with their reported answers.
COc1cc(C)cc2cc(-c3c(CNCC(C)(C)O)c(C)n4ncnc(N)c34)sc12 [Example 77]	0.15
CCOCc1c(-c2cc3cc(C)cc(OC)c3s2)c2c(N)ncnn2c1CN1CCCCO1	1.91
CCOCc1c(-c2cc3cc(C)cc(OC)c3s2)c2c(N)ncnn2c1C(=O)N1CCC(O)C1 (stereo not shown)	0.83
CCOCc1c(-c2cc3cc(C)cc(OC)c3s2)c2c(N)ncnn2c1C(=O)N[C@H]1CCNC1=O	0.57
COCc1c(-c2cc3cccc(OC)c3s2)c2c(N)ncnn2c1CN1CCNC(=O)C1	1.90

Hello, I would appreciate it if you could give log10 of IC50 for each entry below.
1. CNCc1c(-c2cc3cc(C)cc(OC)c3s2)c2c(N)ncnn2c1CN1CCNCC1 [Example 36, trihydrochloride]
2. CCOCc1c(-c2cc3cc(C)cc(OC)c3s2)c2c(N)ncnn2c1C(=O)N1CCCCO1
3. CCOCc1c(-c2cc3cc(C)cc(OC)c3s2)c2c(N)ncnn2c1CN1CNC(=O)C1
4. CCOCc1c(-c2cc3cc(C)cc(OC)c3s2)c2c(N)ncnn2c1C(O)C1CC1 (stereo not shown)
5. COCc1c(-c2cc3cc(C)cc(OC)c3s2)c2c(N)ncnn2c1CN1CC[C@](C)(N)C1 [Example 14, trihydrochloride]
6. COCc1c(-c2cc3cc(C)ccc3s2)c2c(N)ncnn2c1CN1CCNC(=O)C1
7. COc1cc(C)cc2cc(-c3c(C)c(CN4CCNCC4)n4ncnc(N)c34)sc12
8. COc1cc(C)cc2cc(-c3c(COCC(N)=O)c(CN4CCNCC4)n4ncnc(N)c34)sc12

### Response
1: 0.48; 2: 1.62; 3: 0.75; 4: 1.72; 5: 0.15; 6: 1.92; 7: 0.57; 8: 0.00

Hello, I would appreciate it if you could give log10 of IC50 for each entry below.
1. COc1cc(C)cc2cc(-c3c(CN[C@@H]4CCNC4=O)c(CN4CCN(C(C)=O)CC4)n4ncnc(N)c34)sc12
2. COc1cc(C)cc2cc(-c3c(COCC(F)(F)F)c(CN4CCNCC4)n4ncnc(N)c34)sc12

### Response
1. 0.38
2. 0.20

### Prompt Annotate the molecule CCOCc1c(-c2cc3cc(C)cc(OC)c3s2)c2c(N)ncnn2c1C(C)O (stereo not shown) with its measured log10 of IC50.
### Response 1.00

###

target: human FGFR-3 (Homo sapiens (Human), UniProt P22607); assay: FGFR-3 kinase assay (TR-FRET); format: biochemical; conditions: 10 μM ATP; 15 min pre-incubation with enzyme; compounds of the invention
Provide the reported IC50 of each item.
Give bare numbers, in nM.

Here are 5 compounds together with their reported answers.
COc1cc(C)cc2cc(-c3c(CO)c(CN4CCNC(=O)C4)n4ncnc(N)c34)sc12 [Example 13]	10
COC(=O)c1c(-c2cc3cc(C)cc(OC)c3s2)c2c(N)ncnn2c1C(=O)N1CCNCC1 [Example 60]	77.9
COc1cc(C)cc2cc(-c3c(CNCC(C)(C)O)c(C)n4ncnc(N)c34)sc12 [Example 77]	3.8
COCc1c(-c2cc3cc(C)cc(OC)c3s2)c2c(N)ncnn2c1CN[C@@H]1CCNC1=O [Example 4]	24.8
COc1cc(C)cc2cc(-c3c(CN[C@H]4CCNC4=O)c(CN4CCOCC4)n4ncnc(N)c34)sc12 [Example 51]	3.9

Hello, I would appreciate it if you could give IC50 for each entry below.
1. CCOCc1c(-c2cc3cc(C)cc(OC)c3s2)c2c(N)ncnn2c1CN1CCS(=O)(=O)CC1 [Example 99]
2. COc1cc(C)cc2cc(-c3c(CNC(C)=O)c(CN4CCN(C=O)CC4)n4ncnc(N)c34)sc12 [Example 65]

### Response
1: 36.9; 2: 3.1

### Prompt Annotate the compound CCOCc1c(-c2cc3cc(C)cc(OC)c3s2)c2c(N)ncnn2c1CN1CCNC(=O)C1 [Example 5] with its measured IC50.
### Response 12.1

###

target: human FGFR-1 (Homo sapiens); experiment: FGFR-1 high ATP kinase assay (TR-FRET); type: biochemical; conditions: 2 mM ATP; 15 min pre-incubation with enzyme; compounds of the invention
measured quantity: pIC50
One number for each entry, as −log10 of the molar value.

Hello, I would appreciate it if you could give pIC50 for each entry below.
1. COc1cc(C)cc2cc(-c3c(CNCC(C)(C)O)c(CN4CCN(C(C)=O)CC4)n4ncnc(N)c34)sc12
2. CCOCc1c(-c2cc3cc(C)cc(OC)c3s2)c2c(N)ncnn2c1C(=O)N1CCC(O)CC1
3. COc1cc(C)cc2cc(-c3c(CNCC(C)(C)O)c(C)n4ncnc(N)c34)sc12 [Example 78]
4. COC(=O)c1c(-c2cc3cc(C)cc(OC)c3s2)c2c(N)ncnn2c1C(=O)N1CCNCC1

### Response
8.49
8.09
8.77
7.79

###

molecular target: UniProt P11362; assay: FGFR-1 high ATP kinase assay (TR-FRET); type: biochemical; details: 2 mM ATP; 15 min pre-incubation with enzyme; compounds of the invention; dihydrochloride
Counter-ions that a name gives are not always drawn.
measured quantity: IC50 (nM)
Give bare numbers, in nM.

### Prompt Annotate the compound CCOCc1c(-c2cc3cc(C)cc(OC)c3s2)c2c(N)ncnn2c1CN[C@@H]1CCNC1=O [Example 7, dihydrochloride] with its measured IC50.
### Response 4.2

###

biological target: human FGFR-3 (Homo sapiens (Human), UniProt P22607); assay: FGFR-3 kinase assay (TR-FRET); type: biochemical; conditions: 10 μM ATP; 15 min pre-incubation with enzyme; compounds of the invention
Provide the reported pIC50 of each item.
Numbers only, as −log10 of the molar value.

COc1cc(C)cc2cc(-c3c(COCC(N)=O)c(CN4CCNCC4)n4ncnc(N)c34)sc12 [Example 33]	8.14
COc1cc(C)cc2cc(-c3c(CNCC(C)(C)O)c(CN4CCN(C(C)=O)CC4)n4ncnc(N)c34)sc12 [Example 57]	8.74

Hello, I would appreciate it if you could give pIC50 for each entry below.
1. CCOCc1c(-c2cc3cc(C)cc(OC)c3s2)c2c(N)ncnn2c1CN1CC(F)(F)C1 [Example 102]
2. COc1cc(C)cc2cc(-c3c(CN4CCNC(=O)C4)c(C(C)(C)O)n4ncnc(N)c34)sc12 [Example 74]
3. CCOCc1c(-c2cc3cc(C)cc(OC)c3s2)c2c(N)ncnn2c1C(=O)N1CCS(=O)(=O)C1 [Example 119]

### Response
[7.40, 8.85, 8.35]

###

target: human FGFR-1 (Homo sapiens); assay: FGFR-1 high ATP kinase assay (TR-FRET); format: biochemical; settings: 2 mM ATP; 15 min pre-incubation with enzyme; compounds of the invention
Structures can show the parent of a compound that is named as a salt.
measured quantity: IC50 (nM)
One number for each entry, in nM.

Here are 2 compounds together with their reported answers.
CCCOCc1c(-c2cc3cc(C)cc(OC)c3s2)c2c(N)ncnn2c1CN1CCNCC1	1.3
CCOCc1c(-c2cc3cc(C)cc(OC)c3s2)c2c(N)ncnn2c1CN1CCC(O)CC1	17

Hello, I would appreciate it if you could give IC50 for each entry below.
1. CCOCc1c(-c2cc3cc(C)cc(OC)c3s2)c2c(N)ncnn2c1CN1CC(F)(F)C1
2. COc1cc(C)cc2cc(-c3c(CN4CCNC(=O)C4)c(C(C)(C)O)n4ncnc(N)c34)sc12
3. CCCCOCc1c(-c2cc3cc(C)cc(OC)c3s2)c2c(N)ncnn2c1CN1CCNCC1
4. CCOCc1c(-c2cc3cc(C)cc(OC)c3s2)c2c(N)ncnn2c1CN1CC[C@](C)(N)C1
5. COc1cc(C)cc2cc(-c3c(CO)c(CN4CCNCC4)n4ncnc(N)c34)sc12
6. COc1cc(C)cc2cc(-c3c(-c4cnco4)c(CN4CCNCC4)n4ncnc(N)c34)sc12 [Example 61, trihydrochloride]

### Response
[39.2, 4, 17.9, 1, 3.3, 0.5]

Hello, I would appreciate it if you could give IC50 for each entry below.
1. COc1cc(C)cc2cc(-c3c(CO)c(C(C)(C)O)n4ncnc(N)c34)sc12
2. COc1cc(C)cc2cc(-c3c(CN4CCNC(=O)C4)c(CN4CCOCC4)n4ncnc(N)c34)sc12
3. CCOCc1c(-c2cc3cc(C)cc(OC)c3s2)c2c(N)ncnn2c1CN[C@H]1CCNC1=O
4. COc1cc(C)cc2cc(-c3c(COCC4CC4)c(CN4CCNCC4)n4ncnc(N)c34)sc12

### Response
4.4
9.7
5.5
0.7

Hello, I would appreciate it if you could give IC50 for each entry below.
1. CCOCc1c(-c2cc3cc(C)cc(OC)c3s2)c2c(N)ncnn2c1C(=O)N1CC(F)(F)C1
2. CCOCc1c(-c2cc3cc(C)cc(OC)c3s2)c2c(N)ncnn2c1C(=O)NC

### Response
1. 18.9
2. 17.5

Hello, I would appreciate it if you could give IC50 for each entry below.
1. COc1cc(C)cc2cc(-c3c(CNCC(C)(C)O)c(CN4CCOCC4)n4ncnc(N)c34)sc12
2. CCOCc1c(-c2cc3cc(C)cc(OC)c3s2)c2c(N)ncnn2c1CN1CCN(C(C)=O)CC1

### Response
[11.2, 25]
